tested on: Wolbachia pipientis; test: Anti-Wolbachia Cell-Based Screen; type: functional; parameters: scale not given: in the data most compounds retested in dose-response had high values; settings: 5 µM
Screen size: about 48,000 compounds; about 13,000 (27%) showed an effect of 50% or more. This is one part of the list.
readout-label: Percent Effect (%)
Reply numerically in %, unit not repeated.

Some solved cases for reference:
CS(=O)(=O)CCN(CCc1cccc(F)c1)C1CC1 :: 102.8
CS(=O)(=O)CCC(=O)N(CCc1cccc(F)c1)C1CC1 :: 102.1
CS(=O)(=O)CCC(=O)N(Cc1c(F)cccc1F)C1CCCC1 :: -8.645

Value lookup for Percent Effect; key = O=C(C[S+]([O-])Cc1cccc(F)c1)NC1CCCC1 (stereo unspecified)
-2.524

Please report the recorded Percent Effect for `Fc1cccc(CCN(c2ccc3nnnn3n2)C2CC2)c1` .
-14.94

Bench note: what Percent Effect did `CS(=O)(=O)C1CCN(S(=O)(=O)Cc2cccc(F)c2)CC1` show?
-8.016

====

Each entry below carries its reported Percent Effect.
system: Wolbachia pipientis; test: Anti-Wolbachia Cell-Based Screen; type: functional; design: scale not given: in the data most compounds retested in dose-response had high values; conditions: 5 µM
Screen size: about 48,000 compounds; about 13,000 (27%) showed an effect of 50% or more. The list shows a part of the results.
Your answer is read as %, so omit the unit and give the number.

Here is how some compounds turned out for Percent Effect.
Cc1ccc(NC(=O)c2ccc(CC3CC(=O)NC3=O)cc2)cc1O (stereo not given) :: -14.91
Cc1cc(CNC(=O)NCCOc2ccc(F)c(F)c2)on1 :: -11.19
Cc1nc(CN2CCCN(C(=O)c3ccccn3)CC2)oc1C :: 3.458
Cc1cc(NC(=O)CNCc2csc(-c3ncccn3)n2)ccc1Cl :: 12.11
Cc1nsc(NC2CCOC3(CCCC3)C2)n1 (stereo not given) :: -8.543

I'd like to know its Percent Effect. The compound in question is `O=C(c1sccc1C1CC1)N1CCN(Cc2cscn2)CC1`
132.1

Look up Percent Effect: `O=C(C1CCN(Cc2nc(-c3ccco3)no2)CC1)N1CCCC1`
109.9

Form field: reported Percent Effect of Cc1ccccc1SC1CCN(C(=O)C2CNCC(=O)N2)CC1 (stereo not given)
-16.36

Please give the measured Percent Effect for this compound: NC(=O)NCC1CCCCN1Cc1nc(-c2ccco2)no1 (stereo not given)
116.5

Given the entry `CCC(=O)Nc1ccc(F)c(S(=O)(=O)NC(C)(C)C)c1` , report its measured Percent Effect.
-7.233

# lookup: Percent Effect of Cc1nc(C2CCCN(C(=O)c3sccc3C3CC3)C2)no1 (stereo not given)
-10.65

For the compound `COc1ccnc(N2CCCN(Cc3ncc(C(C)C)o3)CC2)n1` , what Percent Effect is on record?
-1.774

Returns the measured Percent Effect for the input compound. Input: O=C(C1CCCCN1Cc1nc(-c2ccco2)no1)N1CCCC1 (stereo not given)
-6.382

Fill blank: measured Percent Effect of the compound COC(C)(C)CC(C)NC(=O)NC1CCN(Cc2ccccn2)CC1 (stereo not given) is ____.
2.912

# input compound: CC(Sc1nnc(C2CC2)n1CC(N)=O)c1ccc(Cl)cc1 (stereo not given) ; wanted: its Percent Effect
0.3539

State the recorded Percent Effect for this entry: O=C(C1CCCN1Cc1nc(-c2ccco2)no1)N1CCSCC1 (stereo not given)
97.23

GET /values?readout=Percent Effect&item= `Cc1ccsc1CN(C)c1nc2c(cnn2C(C)(C)C)c(=O)[nH]1`
-15.84

Entry Cc1cc(N(C)CC2COc3ccccc3O2)nc(C)n1 (stereo not given) : reported Percent Effect = ?
-50.37

Please give the measured Percent Effect for this compound: CC(NC(=O)Nc1ccc(F)c(F)c1)c1nc[nH]n1 (stereo not given)
-17.28

Give its Percent Effect value. Item: `c1coc(-c2noc(CN3CCC(c4ccn[nH]4)CC3)n2)c1`
3.524

Percent Effect for `Cc1cc(CN2CCN(C(=O)c3sccc3C3CC3)CC2)on1` ?
-1.767

Which measured Percent Effect value corresponds to CCC(C)Oc1cc(C(=O)Nc2nccs2)ccn1 (stereo not given) ?
-12.97

These entries and their values trace back to ChEMBL document CHEMBL3988442.
